Would you kindly list kcat/Km (mM^-1 · min^-1) for each of these proteins?
target desc: T1, Pro-Phe-Arg-MCA
T1 chain: PFR

Record excerpt, results attached:
1. Medaka EP-1 serine protease domain (wild-type) (protein) VVGGVNAEKGAWPWMVSLHWRGRHGCGASLIGRDWLLTAAHCVYGKNTHLQYWSAVLGLHAQSSMNSQEVQIRQVDRIIINKNYNRRTKEADIAMMHLQQPVNFTEWVLPVCLASEDQHFPAGRRCFIAGWGRDAEGGSLPDILQEAEVPLVDQDECQRLLPEYTFTSSMLCAGYPEGGVDSCQGDSGGPLMCLEDARWTLIGVTSFGVGCGRPERPGAYARVSAFTSWIAETRRSSFSDLD : 14
2. Bovine EP serine protease (Novagen) (protein) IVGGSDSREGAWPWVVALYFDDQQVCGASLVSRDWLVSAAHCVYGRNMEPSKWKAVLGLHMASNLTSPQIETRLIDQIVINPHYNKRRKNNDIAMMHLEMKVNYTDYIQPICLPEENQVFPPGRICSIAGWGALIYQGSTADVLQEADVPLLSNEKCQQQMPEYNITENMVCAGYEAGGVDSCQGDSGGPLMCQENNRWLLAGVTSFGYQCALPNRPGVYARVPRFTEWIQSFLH : 200
3. Medaka EP-1 serine protease domain mutant E173A (protein) VVGGVNAEKGAWPWMVSLHWRGRHGCGASLIGRDWLLTAAHCVYGKNTHLQYWSAVLGLHAQSSMNSQEVQIRQVDRIIINKNYNRRTKEADIAMMHLQQPVNFTEWVLPVCLASEDQHFPAGRRCFIAGWGRDAEGGSLPDILQEAEVPLVDQDACQRLLPEYTFTSSMLCAGYPEGGVDSCQGDSGGPLMCLEDARWTLIGVTSFGVGCGRPERPGAYARVSAFTSWIAETRRSSFSDLD : 9
4. porcine EP serine protease domain (Ile800 to His1034) (protein) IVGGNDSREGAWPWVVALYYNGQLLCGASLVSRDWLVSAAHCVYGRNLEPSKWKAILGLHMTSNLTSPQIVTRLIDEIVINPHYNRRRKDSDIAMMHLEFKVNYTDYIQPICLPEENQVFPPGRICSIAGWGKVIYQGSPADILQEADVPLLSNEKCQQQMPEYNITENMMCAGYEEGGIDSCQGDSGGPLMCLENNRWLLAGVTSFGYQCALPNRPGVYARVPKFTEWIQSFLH : 77

Attention now turns to another entry.
Return reported kcat/Km (mM^-1 · min^-1); argument: Bovine EP serine protease (New England Biolabs) (protein) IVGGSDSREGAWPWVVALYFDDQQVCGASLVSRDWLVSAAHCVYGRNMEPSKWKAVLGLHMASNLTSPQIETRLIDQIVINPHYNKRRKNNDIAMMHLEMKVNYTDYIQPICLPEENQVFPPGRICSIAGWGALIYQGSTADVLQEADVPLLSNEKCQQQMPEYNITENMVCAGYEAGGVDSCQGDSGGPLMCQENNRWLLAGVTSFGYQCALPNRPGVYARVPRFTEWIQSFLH 450
